test: Lethal dose is determined in mice (iv); format: toxicity, organism-based; conditions: mouse, in vivo
// values below are reported LD50
Just the number in mg/kg, nothing appended.

- line-notation: "CN(C)CC(=O)N(C)c1ccc(Sc2ccccc2)cc1"
  measurement-units: "mg/kg"
  LD50: 50

IN: Fill in LD50 for record CN(C(=O)CN1CCOCC1)c1ccc(Sc2ccccc2)cc1
OUT: 75

IN: Fill in LD50 for record CN(C(=O)CN1CCCC1)c1ccc(Sc2ccccc2)cc1
OUT: 35

IN: Fill in LD50 for record CN1CCN(CC(=O)N(C)c2ccc(Sc3ccccc3)cc2)CC1
OUT: 75

IN: Fill in LD50 for record CCN(CC)CC(=O)N(C)c1ccc(Sc2ccccc2)cc1
OUT: 30
